# TARGET: 6xHis-EphA2 ligand-binding domain
# Sequence (P29317 whole entry, the tested form may be a part): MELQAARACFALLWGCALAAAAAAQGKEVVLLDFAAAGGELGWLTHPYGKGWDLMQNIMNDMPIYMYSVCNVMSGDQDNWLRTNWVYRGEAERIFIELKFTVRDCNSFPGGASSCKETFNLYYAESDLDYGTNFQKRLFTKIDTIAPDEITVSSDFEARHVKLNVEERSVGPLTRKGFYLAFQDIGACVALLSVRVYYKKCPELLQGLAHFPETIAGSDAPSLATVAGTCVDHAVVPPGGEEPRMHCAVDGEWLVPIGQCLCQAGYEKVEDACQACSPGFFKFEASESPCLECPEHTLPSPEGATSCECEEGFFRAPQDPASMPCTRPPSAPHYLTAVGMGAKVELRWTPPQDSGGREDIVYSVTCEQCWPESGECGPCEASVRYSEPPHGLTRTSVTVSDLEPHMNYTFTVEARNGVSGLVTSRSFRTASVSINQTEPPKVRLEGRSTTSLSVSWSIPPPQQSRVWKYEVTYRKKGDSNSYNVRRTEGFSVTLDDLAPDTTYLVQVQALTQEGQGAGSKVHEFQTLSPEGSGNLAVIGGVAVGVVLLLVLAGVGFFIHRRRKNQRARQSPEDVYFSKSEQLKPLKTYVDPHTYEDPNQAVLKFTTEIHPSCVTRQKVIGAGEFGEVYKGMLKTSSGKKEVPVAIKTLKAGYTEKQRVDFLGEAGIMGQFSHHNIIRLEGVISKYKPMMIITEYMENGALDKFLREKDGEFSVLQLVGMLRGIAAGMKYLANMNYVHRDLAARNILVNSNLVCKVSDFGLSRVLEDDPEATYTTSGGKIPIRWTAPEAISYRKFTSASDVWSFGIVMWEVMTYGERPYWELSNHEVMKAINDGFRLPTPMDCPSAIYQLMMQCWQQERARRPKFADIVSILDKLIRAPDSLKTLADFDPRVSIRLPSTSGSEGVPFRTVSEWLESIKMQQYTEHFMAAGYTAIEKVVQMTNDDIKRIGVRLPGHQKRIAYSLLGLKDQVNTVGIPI
# ASSAY REMARKS: ITC; reverse ITC titration with purified EphA2-LBD
ASSAY ENDPOINT: pKd
One number for each entry, as −log10 of the molar value.

Entry LAYPDAVPFRPGK (N-terminal 3-CH3,6,7-OCH3,Benzofuranoic acid; 4-CH3-Tyr at position 3; Hyp (trans 4-hydroxy-L-proline) at position 8; 4-Cl-Phe at position 9; K(Biotin LC) at position 13 (LC: long 6 atom hydrocarbon chain between the biotin and the amide bond); C-terminal amide (-CONH2)) [147B5 (135H11-biotinylated)] , pKd reported as 6.93
